System: velvetleaf
Assay: Test A postemergence
Assay type: in vivo, Abutilon theophrasti
Details: Postemergence, 500 g ai/ha; visual rating after approx. 10 days, 0 to 100 scale (0 no effect, 100 complete control)
Endpoint: Velvetleaf plant response rating
Form field (numeric): enter value without unit.

The cases that follow already have their Velvetleaf plant response rating on record.
In [3]: df
Out[3]:
                  compound_structure_string                          endpoint  measured_result
0  CCc1cc(C(=O)NC2CC2)nn1Cc1ccnc(C(F)(F)F)c1  Velvetleaf plant response rating               90
1  CCc1cc(-c2ccc(C(F)(F)F)cc2)nn1Cc1ccnc(C(F)(F)F)c1  Velvetleaf plant response rating              100
2  Cc1cc(C(=O)NCC(F)(F)F)nn1Cc1cccc(C(F)(F)F)c1F  Velvetleaf plant response rating                0
3  Cc1cc(C(=O)NCC(F)(F)F)nn1Cc1cc(F)cc(C(F)(F)F)c1  Velvetleaf plant response rating               20
4  CCCc1cc(-c2ccc(C(F)(F)F)cc2)nn1Cc1ccnc(C(F)(F)F)c1  Velvetleaf plant response rating              100
5  Cc1cc(C(=O)NC2CC2)nn1Oc1ccnc(C(F)(F)F)c1  Velvetleaf plant response rating               30

Query: Supply Velvetleaf plant response rating measured with velvetleaf for `Cc1cc(C(=O)NCC(F)(F)F)nn1Oc1ccnc(C(F)(F)F)c1` .
Result: 50

Origin of measurements: patent US20150105252A1
